test: gradient 5% acetonitrile 3 min, to 50% in 2 min, to 85% in 15 min, held 3 min, 100 µL/min; settings: column: Zorbax Extend-C18 2.1 x 50 mm; eluents: water / acetonitrile, 0.1% formic acid
assay-metric: RP-LC retention time (s)

CCCCN(CC)c1nc(C)nc2c1c(C)cn2-c1c(C)cc(C)cc1C    945

(A) CSc1ncccc1C(=O)N(Cc1ccsc1)Cc1ccccn1
(B) Cc1noc(-c2cccn2Cc2ccccc2Cl)n1
-- ask Look at A and B . Which one has the lower recorded RP-LC retention time number? // caller expects the label of the chosen entry
-- reply A

====

assay: gradient 5% acetonitrile 3 min, to 50% in 2 min, to 85% in 15 min, held 3 min, 100 µL/min; details: column: Zorbax Extend-C18 2.1 x 50 mm; eluents: water / acetonitrile, 0.1% formic acid
assay-metric: RP-LC retention time (s)

Please review the following examples before continuing.
COCc1noc([C@@H]2CC(F)(F)CN2C(=O)c2cc(C)oc2C)n1    835
COc1ncccc1CNC(=O)Cc1ccsc1    610

(A) Cc1nc(Cn2cccc2C(=O)NC2CCCCCCC2)no1
(B) CCn1nccc1C(=O)N1CCC(c2noc(N)c2C)CC1
-- ask Please tell me which of the two, A or B , has the higher reported RP-LC retention time value. // caller expects the label of the chosen entry
-- reply A

====

assay: gradient 5% acetonitrile 3 min, to 50% in 2 min, to 85% in 15 min, held 3 min, 100 µL/min; conditions: column: Zorbax Extend-C18 2.1 x 50 mm; eluents: water / acetonitrile, 0.1% formic acid
assay-metric: RP-LC retention time (s)

CCN1C(=O)C(CC(=O)NCCCOC)Sc2ncccc21 (stereo unspecified)    620
Cc1cccc2nnc(N3CCC(C(=O)N4CCC(C)CC4)CC3)n12    663
O=C(C1CCN(S(=O)(=O)Cc2ccc(F)cc2)CC1)N1CCOCC1    705
Cc1cc(C)cc(NC(=O)C2CCCN2S(=O)(=O)c2cc3c(cc2C)NC(=O)CO3)c1 (stereo unspecified)    815
CSc1sc(C)cc1-c1nsc(=O)o1    1110
CC(C)CNC(=O)c1nc(-c2ccnc(N3CCC(C)CC3)c2)no1    814

====

test: gradient 5% acetonitrile 3 min, to 50% in 2 min, to 85% in 15 min, held 3 min, 100 µL/min; conditions: column: Zorbax Extend-C18 2.1 x 50 mm; eluents: water / acetonitrile, 0.1% formic acid
assay-metric: RP-LC retention time (s)

CCC(C)NC(=O)CC1CCN(C(=O)c2[nH]c(C)c(C(=O)OC(C)C)c2C)CC1 (stereo not given)    775
Cc1ccc(Nc2c(-c3ccc4c(c3)OCO4)nc3cnccn23)c(C)c1    933
O=C(Nc1ccc(F)c(Cl)c1)C1CCCN(c2ncnc3c2nc2n3CCCCC2)C1 (stereo not given)    917
Cc1ccc(C)c(NC(=O)Cn2cnc3nc4c(cc3c2=O)CCCC4)c1    705
COc1ccccc1N1CCN(c2cc(SCC(=O)Nc3cccc(Cl)c3C)ncn2)CC1    1110

(a) CCN(CC)C(=O)c1ccccc1NC(=O)c1ccc2c(c1)-c1ccccc1S(=O)(=O)N2CC
(b) O=C(c1ccoc1)N1CCCC1Cc1noc(-c2cnccn2)n1 (stereo not given)
-- ask Please tell me which of the two, a or b , has the higher reported RP-LC retention time value. // caller expects the label of the chosen entry
-- reply a

Taken from the METLIN SMRT retention time set (Domingo-Almenara et al. 2019).
